System: E. faecalis CW133003
experiment description: microbe, parasite or virus in culture
condition description: broth microdilution per CSLI guidelines, Brain Heart Infusion broth, 5 × 10^5 CFU/mL, 37 °C, 20 h, range 64–0.125 µg/mL, average of three repeat assays
Where no end group is shown, it is not given here. [ ]: non-standard residue; d: D form. Trp(1-Me) = Cn1cc(C[C@H](N)C(=O)O)c2ccccc21
readout name: Minimum inhibitory concentration E. faecalis CW133003 (µg/mL)
Give the value in µg/mL but do not write µg/mL after it.

MS[Trp(1-Me)]LNFLKYIAKYGKKAVSAAWKYKGKVLEWLNVGPTLEWVWQKLKKIAGL-NH2 [L-^1MeW3, L-aureocin A53 ^1MeTrp3 (Met^1-Leu^51)] :: 2
MSWLNFLKYIAKYGKKAVSAALKYKGKVLEWLNVGPTLEWVWQKLKKIAGL-NH2 [L-W22L, L-aureocin A53 W22L (Met^1-Leu^51)] :: 16
MSWLNFLKYIAKYGKKAVSAAWKYKGKVLEWLNVGPTLEWVWQKLKKIAGL-NH2 [L-AucA, L-aureocin A53 (Met^1-Leu^51)] :: 4
MAGFLKVVQLLAKYGSKAVQWALANKGKILDWLNAGQAIDWVVSKIKQILGIK-NH2 [L-W23L, L-lacticin Q W23L (Met^1-Lys^53)] :: 4
MAGFLKVVQLLAKYGSKAVQWAWANKGKILDWLNAGQAIDWVVSKIKQILGIK-NH2 [L-LnqQ, L-lacticin Q (Met^1-Lys^53)] :: 2

Quick note, Minimum inhibitory concentration E. faecalis CW133003 for MSLLNFLKYIAKYGKKAVSAAWKYKGKVLEWLNVGPTLEWVWQKLKKIAGL-NH2 [L-W3L, L-aureocin A53 W3L (Met^1-Leu^51)] landed at 16

Quick note, Minimum inhibitory concentration E. faecalis CW133003 for MAGFLKVVQLLAKYGSKAVQWAWANKGKILDWLNAGQAIDLVVSKIKQILGIK-NH2 (C-terminus assumed) [L-W41L, L-lacticin Q W41L (Met^1-Lys^53)] landed at 64

Quick note, Minimum inhibitory concentration E. faecalis CW133003 for MAGFLKVVQLLAKYGSKAVQLAWANKGKILDWLNAGQAIDWVVSKIKQILGIK-NH2 [L-W21L, L-lacticin Q W21L (Met^1-Lys^53)] landed at 8

Quick note, Minimum inhibitory concentration E. faecalis CW133003 for MAGFLKVVQLLAKYGSKAVQWAWANKGKILDLLNAGQAIDWVVSKIKQILGIK-NH2 (C-terminus assumed) [L-W32L, L-lacticin Q W32L (Met^1-Lys^53)] landed at 4

* * *

Consider the following substances and their measured Minimum inhibitory concentration S. aureus CW114125 readings.
Tested on: S. aureus CW114125
experiment description: microbe, parasite or virus in culture
condition description: broth microdilution per CSLI guidelines, cation-adjusted Mueller Hinton Broth 2, 5 × 10^5 CFU/mL, 37 °C, 20 h, range 64–0.125 µg/mL, average of three repeat assays
Where no end group is shown, it is not given here. [ ]: non-standard residue; d: D form. Trp(1-Me) = Cn1cc(C[C@H](N)C(=O)O)c2ccccc21
Give the value in µg/mL but do not write µg/mL after it.

Completed entries (count: 3):
MSLLNFLKYIAKYGKKAVSAAWKYKGKVLEWLNVGPTLEWVWQKLKKIAGL-NH2 [L-W3L, L-aureocin A53 W3L (Met^1-Leu^51)] :: 4
MS[Trp(1-Me)]LNFLKYIAKYGKKAVSAAWKYKGKVLEWLNVGPTLEWVWQKLKKIAGL-NH2 [L-^1MeW3, L-aureocin A53 ^1MeTrp3 (Met^1-Leu^51)] :: 4
MAGFLKVVQLLAKYGSKAVQLAWANKGKILDWLNAGQAIDWVVSKIKQILGIK-NH2 [L-W21L, L-lacticin Q W21L (Met^1-Lys^53)] :: 32

Lab note: next substance to report on.
Item MAGFLKVVQLLAKYGSKAVQWAWANKGKILDWLNAGQAIDWVVSKIKQILGIK-NH2 [L-LnqQ, L-lacticin Q (Met^1-Lys^53)] was tested on S. aureus CW114125; the reported Minimum inhibitory concentration S. aureus CW114125 is 32

Numbers sourced from paper PMC10354048.
